experimentSummary: NCI Yeast Anticancer Drug Screen. Data for the mec2-1 strain (AID 157)
conditionInfo: S. cerevisiae mec2-1 strain, at 50.0 µM
Protocol: Growth inhibition of yeast strains with defined genetic alterations is measured as a screen for potential anti-cancer activity. Selected strains with alterations in DNA damage repair or cell cycle control were exposed to compounds and growth inhibition was measured relative to vehicle treated controls. The strain used in this assay is mec2-1
This is part of a sample that, as a whole, favours compounds with a hit. Of some 79,000 tested, about 15% had one in any assay. Active and inactive are the calls of the source. No stated cut-off is given here; in the data, active means growth inhibition above about 70%; inactive means the rest.
Possible outcomes: y = active, n = inactive

molecule	answerLabel
CC[CH2][Pb]([CH2]CC)([CH2]CC)[NH]S(=O)(=O)c1ccc(C)cc1	y
O=S(O)(O)=S.[Co+3].[NH-]CC[NH-].[NH-]CC[NH-].[NH2-].[NH2-]	n
O=CC(O)C(O)C1[O][Sb][O]C1CO (stereo not drawn)	n
CC(=O)N1CCCN(C)/C1=N/[N+](=O)[O-]	n
O=c1oc2cc(O)ccc2c(O)c1C(c1cccnc1)c1c(O)c2ccc(O)cc2oc1=O	n
CCOP(=O)(OCC)Oc1ccc([N+](=O)[O-])c(CC)c1	n
CCC1CN2CCC1CC2C(O)c1cc[n+]([O-])c2ccc(OC)cc12 (stereo not drawn)	n
O=P1(N(CCCl)CCCl)OC(c2ccccc2)=CCN1c1ccccc1 (stereo not drawn)	n

* * *

experimentSummary: NCI Yeast Anticancer Drug Screen. Data for the rad50 strain (AID 155);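 further: 0% = growth of vehicle-only cultures of the same strain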
conditionInfo: S. cerevisiae rad50 strain growth inhibition; at 5.0 µM (retest, dose inferred, filed as 0.5); hits give high values
Compounds without any hit were thinned out: in the full panel of roughly 79,000, 15% have a hit.

compound	growth inhibition, %
CN1C2CCC1c1c([nH]c3ccccc13)C2 (stereo not given)	-22
CC[C@@H]1C(=O)OC[C@@H]1Cc1cncn1C	-3
O=c1cccc(C2CC(CO)C3CCCCN3C2)[nH]1 (stereo not given)	1
[Au+].[Au+].[Au+].[c-]1nccn1Cc1ccccc1.[c-]1nccn1Cc1ccccc1.[c-]1nccn1Cc1ccccc1	13
O=[N+]([O-])/C=C/c1c(Cl)cccc1Cl	99

* * *

experimentSummary: NCI Yeast Anticancer Drug Screen. Data for the bub3 strain (AID 167)
conditionInfo: S. cerevisiae bub3 mutant strain, at 50.0 µM
Compounds without any hit were thinned out: in the full panel of roughly 79,000, 15% have a hit. Active and inactive are the calls of the source. Rule as the data show it: active = growth inhibition above about 70%; inactive = the rest.
Possible outcomes: 1 (active), 0 (inactive)

compound	answerLabel
COC1OC(CN=[N+]=[N-])C2OC12 (configuration not stated)	0
CC1CCN(CCC(=O)CC(c2ccccc2)c2c(O)c3ccccc3oc2=O)CC1 (configuration not stated)	1
O=P1(N(CCCl)CCCl)OC(c2ccccc2)=CCN1c1ccccc1 (configuration not stated)	0
CC(=O)c1cc(CN(CCCl)CCCl)c(O)c(CN(CCCl)CCCl)c1O	1
CCC[CH2][Sn]1([CH2]CCC)[O]C2C(O)OC(CO)C(O)C2[O]1 (configuration not stated)	1
O=C(CCCc1ccccc1)[O][Hg][c]1ccccc1	1
O=C(O)CC1NCc2cc3ccccc3nc21 (configuration not stated)	0

* * *

experimentSummary: NCI Yeast Anticancer Drug Screen. Data for the sgs1 mgt1 strain (AID 161);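 further: 0% = growth of cultures given vehicle only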
conditionInfo: S. cerevisiae sgs1 mgt1 strain, at 50.0 µM
This is part of a sample that, as a whole, favours compounds with a hit. Of some 79,000 tested, about 15% had one in any assay. The source made the active and inactive calls. Cut-off read from the data, not from the text of the source: active = growth inhibition above about 70%; inactive = the rest.
Outcomes: active, inactive

compound	answerLabel
COP(=O)(OC)/C(C#N)=C/c1ccco1	inactive
NC(=O)NNC(=O)C(Cl)(Cl)Cl	inactive
CCC(=O)C1(c2ccccc2)CCN(C)CC1	inactive
ClCCCCl	inactive
Cc1nc(N)sc1S(=O)(=O)F	inactive
CCCCCCCCCC[C@@H](O)[C@@H]1CC[C@@H]([C@@H]2CC[C@@H]([C@@H](O)CCCCCCCCCC[C@H](O)CC3=CC(C)OC3=O)O2)O1 (stereo partly specified)	inactive
O=P(Oc1ccccc1)(Oc1ccccc1)N(CCCl)CCCl	inactive
CCCCN(CCCC)CC(O)c1ccc(Br)cc1 (stereo unspecified)	inactive
CN(C)c1ccc(SC(Cl)(Cl)Cl)cc1	inactive
NCCN.O=C([O-])C(=O)[O-].O=C([O-])C(=O)[O-].[Co+3].[K+]	inactive
COc1cc(/C=C/[N+](=O)[O-])cc(Br)c1OC	active
